# Conditions Used: in sec-butanol, 298.37 K
Result Type: solubility (mole fraction)
Numbers only.

**Query** For CN(C)CCn1[nH]nnc1=S , what is its reported solubility (mole fraction)?
**Result** 3.49e-05

---

# Conditions Used: in DMF, 318.22 K
Result Type: solubility (mole fraction)
One number for each entry.

**Query** For CN(C)CCn1[nH]nnc1=S , what is its reported solubility (mole fraction)?
**Result** 0.00179

---

# Conditions Used: in sec-butanol, 340.5 K
Result Type: solubility (mole fraction)
Answers are plain numbers.

**Query** For CN(C)CCn1[nH]nnc1=S , what is its reported solubility (mole fraction)?
**Result** 0.000165

---

# Conditions Used: in isopropanol, 298.28 K
Result Type: solubility (mole fraction)
Answers are plain numbers.

**Query** For CN(C)CCn1[nH]nnc1=S , what is its reported solubility (mole fraction)?
**Result** 4.15e-05

---

# Conditions Used: in DMF, 345.15 K
Result Type: solubility (mole fraction)
One number for each entry.

**Query** For CN(C)CCn1[nH]nnc1=S , what is its reported solubility (mole fraction)?
**Result** 0.00393

---

# Conditions Used: in DMF, 338.22 K
Result Type: solubility (mole fraction)
Give bare numbers.

**Query** For CN(C)CCn1[nH]nnc1=S , what is its reported solubility (mole fraction)?
**Result** 0.00335

---

# Conditions Used: in DMF, 333.3 K
Result Type: solubility (mole fraction)
Numbers only.

**Query** For CN(C)CCn1[nH]nnc1=S , what is its reported solubility (mole fraction)?
**Result** 0.00297

---

# Conditions Used: in ethanol, 318.15 K
Result Type: solubility (mole fraction)

**Query** For CN(C)CCn1[nH]nnc1=S , what is its reported solubility (mole fraction)?
**Result** 0.000118

---

# Conditions Used: in n-propanol, 318.23 K
Result Type: solubility (mole fraction)
One number for each entry.

**Query** For CN(C)CCn1[nH]nnc1=S , what is its reported solubility (mole fraction)?
**Result** 0.00014

---

# Conditions Used: in ethanol, 298.15 K
Result Type: solubility (mole fraction)
Answers are plain numbers.

**Query** For CN(C)CCn1[nH]nnc1=S , what is its reported solubility (mole fraction)?
**Result** 6.16e-05

---

# Conditions Used: in methanol, 303.15 K
Result Type: solubility (mole fraction)
Give bare numbers.

**Query** For CN(C)CCn1[nH]nnc1=S , what is its reported solubility (mole fraction)?
**Result** 0.000219

---

# Conditions Used: in DMF, 303.35 K
Result Type: solubility (mole fraction)
Give bare numbers.

**Query** For CN(C)CCn1[nH]nnc1=S , what is its reported solubility (mole fraction)?
**Result** 0.00105

---

# Conditions Used: in isopropanol, 293.15 K
Result Type: solubility (mole fraction)

**Query** For CN(C)CCn1[nH]nnc1=S , what is its reported solubility (mole fraction)?
**Result** 3.47e-05

---

# Conditions Used: in methanol, 318.24 K
Result Type: solubility (mole fraction)
Answers are plain numbers.

**Query** For CN(C)CCn1[nH]nnc1=S , what is its reported solubility (mole fraction)?
**Result** 0.000348
